assay_system: E3 ubiquitin-protein ligase UHRF1 (Homo sapiens) (UniProt Q96T88)
Sequence (Q96T88 whole entry, looked up, the tested form may be a part): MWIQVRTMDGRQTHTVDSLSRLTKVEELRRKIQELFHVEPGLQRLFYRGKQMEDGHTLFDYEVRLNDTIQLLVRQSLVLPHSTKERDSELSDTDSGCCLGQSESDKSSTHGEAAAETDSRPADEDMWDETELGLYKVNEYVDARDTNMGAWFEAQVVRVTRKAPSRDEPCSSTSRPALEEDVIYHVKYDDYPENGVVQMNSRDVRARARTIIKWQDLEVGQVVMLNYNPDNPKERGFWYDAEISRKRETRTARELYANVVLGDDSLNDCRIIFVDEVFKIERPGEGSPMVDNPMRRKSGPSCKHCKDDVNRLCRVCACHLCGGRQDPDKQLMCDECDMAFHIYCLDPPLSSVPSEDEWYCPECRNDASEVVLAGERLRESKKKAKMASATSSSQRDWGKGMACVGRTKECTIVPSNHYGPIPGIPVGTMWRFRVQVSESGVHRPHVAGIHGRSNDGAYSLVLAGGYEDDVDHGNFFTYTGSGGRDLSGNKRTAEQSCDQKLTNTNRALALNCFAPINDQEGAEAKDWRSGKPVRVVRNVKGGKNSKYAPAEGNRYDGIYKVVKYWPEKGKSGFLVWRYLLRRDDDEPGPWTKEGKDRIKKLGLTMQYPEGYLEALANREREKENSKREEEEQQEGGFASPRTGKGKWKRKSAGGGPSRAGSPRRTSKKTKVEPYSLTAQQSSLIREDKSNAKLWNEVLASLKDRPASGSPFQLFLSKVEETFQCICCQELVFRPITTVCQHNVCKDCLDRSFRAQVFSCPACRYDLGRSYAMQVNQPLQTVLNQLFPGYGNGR
measurement_protocol: blockers of UHRF1 binding to methyl-oligo – biochemical, TR-FRET, human UHRF1, single concentration, counter-screen for MBD2 inhibitor project, primary screen (AID 687016);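 also: UHRF1 SRA domain binding a hemimethylated CpG hairpin DNA probe; 0% = median of test compound wells and 100% = reference inhibitor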
settings: UHRF1 binding to methylated oligo, at 4.4 µM, stronger effect = higher value
In all, about 370,000 compounds went through this assay and about 2,800 (0.76%) were called active. The list comes from a sample in which actives are over-represented; it also holds close analogues and randomly drawn compounds.
Reported inhibition values for a set of molecules

- molecule: "Cc1ccc(-c2nc(C3CCCN(S(=O)(=O)c4ccc(Br)s4)C3)no2)cc1 (stereo not given)"
  assay_system: "E3 ubiquitin-protein ligase UHRF1 (Homo sapiens) (UniProt Q96T88)"
  inhibition / %: 1.59
- molecule: "CC(C)CSc1nnc(-c2cccnc2)n1Cc1ccccc1"
  assay_system: "E3 ubiquitin-protein ligase UHRF1 (Homo sapiens) (UniProt Q96T88)"
  inhibition / %: -0.61
- molecule: "CCCCn1c(N)c(N(CC(C)C)C(=O)c2ccc(Br)o2)c(=O)[nH]c1=O"
  assay_system: "E3 ubiquitin-protein ligase UHRF1 (Homo sapiens) (UniProt Q96T88)"
  inhibition / %: 0.08
- molecule: "CCOC(=O)C1=C(C)NC2=C(C(=O)CC(C)(C)C2)C1c1ccc2c(c1)OCO2 (stereo not given)"
  assay_system: "E3 ubiquitin-protein ligase UHRF1 (Homo sapiens) (UniProt Q96T88)"
  inhibition / %: 3.68
- molecule: "CCCCn1c(N)c(N(CC(C)C)C(=O)C2CSC3(C)CCC(=O)N23)c(=O)[nH]c1=O (stereo not given)"
  assay_system: "E3 ubiquitin-protein ligase UHRF1 (Homo sapiens) (UniProt Q96T88)"
  inhibition / %: 28.1

###

assay_system: E3 ubiquitin-protein ligase UHRF1 (Homo sapiens) (UniProt Q96T88)
measurement_protocol: blockers of UHRF1 binding to methyl-oligo – biochemical, TR-FRET, human UHRF1, single concentration, counter-screen for MBD2 inhibitor project, primary screen (AID 687016);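 also: UHRF1 SRA domain binding a hemimethylated CpG hairpin DNA probe; 0% = median of test compound wells and 100% = reference inhibitor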
settings: UHRF1 binding to methylated oligo, at 4.4 µM, stronger effect = higher value
Out of some 370,000 compounds screened, about 2,800 (0.76%) were called active. Only a selection was taken, and actives are over-represented in it overall.
The compounds listed here are annotated with their inhibition.
endpoint_label: inhibition (%)

- compound: "O=C(OCC#CCSc1nnc(-c2ccco2)o1)c1ccc(F)cc1"
  assay_system: "E3 ubiquitin-protein ligase UHRF1 (Homo sapiens) (UniProt Q96T88)"
  test_value: -3.52
- compound: "COC(=O)c1ccc2nc(-c3ccccc3)c(Cc3ccc(OC)cc3C)n2c1"
  assay_system: "E3 ubiquitin-protein ligase UHRF1 (Homo sapiens) (UniProt Q96T88)"
  test_value: 22.1
- compound: "CCOc1ccc(NC(=O)c2ccc(NC(=O)COC(=O)c3ccc(NC(=O)CC#N)cc3)cc2)cc1"
  assay_system: "E3 ubiquitin-protein ligase UHRF1 (Homo sapiens) (UniProt Q96T88)"
  test_value: 23.6
- compound: "COc1ccc(-c2cc(-c3nnc(SCc4ccc([N+](=O)[O-])cc4)n3N)[nH]n2)cc1"
  assay_system: "E3 ubiquitin-protein ligase UHRF1 (Homo sapiens) (UniProt Q96T88)"
  test_value: -1.01
- compound: "CC(C)(C)C1C/C(=C/c2ccco2)C(=O)/C(=C/c2ccco2)C1 (configuration not stated)"
  assay_system: "E3 ubiquitin-protein ligase UHRF1 (Homo sapiens) (UniProt Q96T88)"
  test_value: 99.5
- compound: "Cc1c(NC(=O)c2c([N+](=O)[O-])cnn2C)c(=O)n(-c2ccccc2)n1C"
  assay_system: "E3 ubiquitin-protein ligase UHRF1 (Homo sapiens) (UniProt Q96T88)"
  test_value: -1.94
- compound: "O=C(CN1CCCCCC1)Nc1ccc(S(=O)(=O)N2CCCCC2)cc1"
  assay_system: "E3 ubiquitin-protein ligase UHRF1 (Homo sapiens) (UniProt Q96T88)"
  test_value: 62.1
- compound: "O=C(CN1CCCCC1)Nc1ccccc1Cl"
  assay_system: "E3 ubiquitin-protein ligase UHRF1 (Homo sapiens) (UniProt Q96T88)"
  test_value: 45.6
- compound: "CC(=O)N1CCc2cc(S(=O)(=O)NCCC(=O)N3CCCC3)ccc21"
  assay_system: "E3 ubiquitin-protein ligase UHRF1 (Homo sapiens) (UniProt Q96T88)"
  test_value: 2.88
- compound: "COc1ccc(C#CCNCc2ccc(OC)cc2OC)cc1"
  assay_system: "E3 ubiquitin-protein ligase UHRF1 (Homo sapiens) (UniProt Q96T88)"
  test_value: -1.17
- compound: "CC1(C)Cc2c(C#N)c(SCc3nc4ccccc4[nH]3)nc(N3CCOCC3)c2CO1"
  assay_system: "E3 ubiquitin-protein ligase UHRF1 (Homo sapiens) (UniProt Q96T88)"
  test_value: 25.8
- compound: "COc1nc(-c2ccc(Cl)cc2)ccc1-c1noc(-c2cccs2)n1"
  assay_system: "E3 ubiquitin-protein ligase UHRF1 (Homo sapiens) (UniProt Q96T88)"
  test_value: 37.1
- compound: "OCC(CO)(CO)NCc1ccc(-c2ccccc2)cc1"
  assay_system: "E3 ubiquitin-protein ligase UHRF1 (Homo sapiens) (UniProt Q96T88)"
  test_value: 24.9
- compound: "O=C(CN1CCCCC1)Nc1ccccc1C(=O)NC1CC1"
  assay_system: "E3 ubiquitin-protein ligase UHRF1 (Homo sapiens) (UniProt Q96T88)"
  test_value: 3.15
- compound: "O=C(NCCc1c[nH]c2ccccc12)OCc1cn(-c2c(F)cccc2F)nn1"
  assay_system: "E3 ubiquitin-protein ligase UHRF1 (Homo sapiens) (UniProt Q96T88)"
  test_value: -1.24
- compound: "Cc1c(NC(=O)c2cccnc2)c(=O)n(-c2ccccc2)n1C"
  assay_system: "E3 ubiquitin-protein ligase UHRF1 (Homo sapiens) (UniProt Q96T88)"
  test_value: 23.3
- compound: "CC(C)C(=O)N1CCN(c2nc(-c3ccccc3)c3c(c2C#N)CC(C)(C)OC3)CC1"
  assay_system: "E3 ubiquitin-protein ligase UHRF1 (Homo sapiens) (UniProt Q96T88)"
  test_value: -0.61
- compound: "COc1ccc(CCNc2nc(C)cc(C)n2)cc1OC"
  assay_system: "E3 ubiquitin-protein ligase UHRF1 (Homo sapiens) (UniProt Q96T88)"
  test_value: -1.42
- compound: "CCOc1ccc(NC(=O)c2ccc(CSc3nnnn3C)cc2)cc1"
  assay_system: "E3 ubiquitin-protein ligase UHRF1 (Homo sapiens) (UniProt Q96T88)"
  test_value: -0.48
- compound: "Cc1c(NC(=S)Nc2ccccc2)c(=O)n(-c2ccccc2)n1C"
  assay_system: "E3 ubiquitin-protein ligase UHRF1 (Homo sapiens) (UniProt Q96T88)"
  test_value: -4.22
- compound: "CCOC(=O)CSc1nc(N2CCOCC2)c2c(c1C#N)CC(C(C)C)OC2 (configuration not stated)"
  assay_system: "E3 ubiquitin-protein ligase UHRF1 (Homo sapiens) (UniProt Q96T88)"
  test_value: 1.09
- compound: "COc1ccc(NC(=O)C2(C)Cc3c(-c4cccc(NC(C)=O)c4)ccnc3O2)cc1OC (configuration not stated)"
  assay_system: "E3 ubiquitin-protein ligase UHRF1 (Homo sapiens) (UniProt Q96T88)"
  test_value: 3.78

###

assay_system: E3 ubiquitin-protein ligase UHRF1 (Homo sapiens)
measurement_protocol: blockers of UHRF1 binding to methyl-oligo – biochemical, TR-FRET, human UHRF1, single concentration, counter-screen for MBD2 inhibitor project, primary screen (AID 687016);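 also: UHRF1 SRA domain binding a hemimethylated CpG hairpin DNA probe; 0% = median of test compound wells and 100% = reference inhibitor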
settings: UHRF1 binding to methylated oligo, at 4.4 µM, stronger effect = higher value
About 2,800 (0.76%) of roughly 370,000 compounds were called active. This excerpt belongs to a sample that is enriched for actives.

- compound: "O=C(NCC(c1cccs1)N1CCOCC1)c1cc(Cl)ccc1[N+](=O)[O-] (stereo not given)"
  inhibition: "29.1% (active)"
- compound: "O=C1OC(NC(=O)c2ccccc2)C(N2CCOCC2)=C1Cl (stereo not given)"
  inhibition: "0.02% (inactive)"
- compound: "CCOC(=O)[C@]12CCCCC/C=C\\1N(Cc1ccc(OC)cc1)C(=O)[C@H]2CC(=O)NCc1ccc(C)o1"
  inhibition: "-2.03% (inactive)"
- compound: "O=C(Nc1ccc(F)cc1)c1cccnc1N1CCOCC1"
  inhibition: "-3.63% (inactive)"
- compound: "COc1cccc(CNC(=O)CNS(=O)(=O)c2ccc3nc(C)sc3c2)c1OC"
  inhibition: "-1.45% (inactive)"
- compound: "C=C(C)C#CC(Cc1ccccc1)N(CC1CC1)/C(N)=N/C(=O)OCc1ccccc1 (stereo not given)"
  inhibition: "-3.18% (inactive)"
- compound: "Cc1nc(CNc2ncnc3ccc(-c4ccc5c(c4)OCO5)cc23)cs1"
  inhibition: "-2.89% (inactive)"
- compound: "COc1ccc(N2C(=O)C(CC(=O)Nc3ccccc3)N(Cc3ccc(OC)c(OC)c3)C2=O)cc1 (stereo not given)"
  inhibition: "1.08% (inactive)"
- compound: "FC(F)(F)c1ccccc1Cc1c(-c2ccccc2)nc2c3ccccc3ccn12"
  inhibition: "14.2% (inactive)"
- compound: "COc1ccc(N2C(=O)C(CC(=O)Nc3ccc(F)cc3)N(CCc3cccs3)C2=O)cc1 (stereo not given)"
  inhibition: "1.34% (inactive)"
